- ASSAY SYSTEM: caseinolytic protease proteolytic subunit of Plasmodium knowlesi (Pk-ClpP) (Plasmodium knowlesi)
- Construct: gene PKNH_0835300
- Sequence (A0A384LAC0 141-372 limits assumed): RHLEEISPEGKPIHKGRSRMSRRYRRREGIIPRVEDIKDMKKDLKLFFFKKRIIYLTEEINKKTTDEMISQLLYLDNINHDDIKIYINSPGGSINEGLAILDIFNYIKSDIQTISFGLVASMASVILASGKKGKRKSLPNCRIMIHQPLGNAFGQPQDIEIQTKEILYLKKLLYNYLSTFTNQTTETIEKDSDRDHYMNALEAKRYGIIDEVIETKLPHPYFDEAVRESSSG
- PROTOCOL NOTES: chromogenic protease assay with N-CBZ-Glycine p-nitrophenyl ester on purified Pk-ClpP
- Type: biochemical
- TEST PARAMETERS: read-out: IC50
pIC50: −log10 of the molar value.
OBSERVABLE: pIC50

>>> print(df.to_string())
                                   compound  observable  reported_result
0  CC(=O)O[C@H](/C=C\[C@H]1CC=CC(=O)O1)C[C@@H](OC(C)=O)[C@H](C)OC(C)=O [Hyp, hyptolide]       pIC50             7.76
